Biological target: hCRTH2 receptor (Homo sapiens (Human))
Test: Radioligand displacement assay in presence of human serum albumin (HSA)
Conditions: 3H-PGD2 2.5 nM, Binding-Buffer with 0.5% HSA instead of 0.1% BSA
ASSAY READOUT: pIC50
Field pIC50 (float): negative decimal logarithm of the concentration in molar.

Some solved cases for reference:
COMPOUND: CN(c1nc2cc(Cl)ccc2s1)[C@H]1CCc2c(c3cc(F)ccc3n2CC(=O)O)C1
pIC50: 8.10
//
COMPOUND: CN(c1nc2ccc(F)cc2o1)[C@H]1CCc2c(c3cc(F)ccc3n2CC(=O)O)C1
pIC50: 7.92

Which pIC50 is listed for CN(c1nc2cc(F)ccc2o1)[C@H]1CCc2c(c3cc(F)ccc3n2CC(=O)O)C1 ?
8.15

Record: CN(c1nccc(C(F)(F)F)n1)[C@H]1CCc2c(c3cc(F)ccc3n2CC(=O)O)C1
6.11

----------
Target: hCRTH2 receptor (Homo sapiens (Human), UniProt Q9Y5Y4)
Sequence (Q9Y5Y4 whole entry): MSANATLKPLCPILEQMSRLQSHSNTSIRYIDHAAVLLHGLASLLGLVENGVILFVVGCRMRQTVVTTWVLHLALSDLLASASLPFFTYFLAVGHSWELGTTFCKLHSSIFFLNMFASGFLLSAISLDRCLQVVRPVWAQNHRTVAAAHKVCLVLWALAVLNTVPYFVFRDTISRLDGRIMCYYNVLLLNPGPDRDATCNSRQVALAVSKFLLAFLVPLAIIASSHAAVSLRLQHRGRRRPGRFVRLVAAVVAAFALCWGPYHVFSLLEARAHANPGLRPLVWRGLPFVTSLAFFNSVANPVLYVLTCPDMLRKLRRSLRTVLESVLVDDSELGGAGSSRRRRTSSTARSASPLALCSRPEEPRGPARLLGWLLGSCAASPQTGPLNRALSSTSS
Experiment: hCRTH2 receptor membranes radioligand displacement assay (3H-PGD2)
Conditions: 3H-PGD2 2.5 nM, HEK293-hCRTH2 membranes, Binding-Buffer with 0.1% BSA
ASSAY READOUT: IC50 (nM)
Kindly answer with a numeric value in nM, unit omitted.

// returns reported IC50 for input CN(c1ccon1)C1CCc2c(c3cc(F)ccc3n2CC(=O)O)C1 (centres unmarked)
6.4

Similarly, CN(c1nc2cc(Cl)ccc2s1)[C@H]1CCc2c(c3cc(F)ccc3n2CC(=O)O)C1 ?
10

Another compound: CN(c1ccn(C)n1)C1CCc2c(c3cc(F)ccc3n2CC(=O)O)C1 (centres unmarked)
37

Another compound to look at: CN(c1ccc(C(F)(F)F)cn1)[C@H]1CCc2c(c3cc(F)ccc3n2CC(=O)O)C1
9.1

Consider next the compound Cc1cc(C)nc(N(C)[C@H]2CCc3c(c4cc(F)ccc4n3CC(=O)O)C2)n1 in the same way.
125

Check CN(c1ncc(Cl)cn1)[C@@H]1CCc2c(c3cc(F)ccc3n2CC(=O)O)C1 too.
58

How about this compound: CN(c1nc2cc(Cl)ccc2o1)[C@H]1CCc2c(c3cc(F)ccc3n2CC(=O)O)C1
1.4

Follow-up item: O=C(O)Cn1c2c(c3cc(F)ccc31)C[C@H](Nc1nccc(C(F)(F)F)n1)CC2
46

----------
Biological target: UniProtKB Q9Y5Y4
Experiment: Radioligand displacement assay in presence of human serum albumin (HSA)
Conditions: 3H-PGD2 2.5 nM, Binding-Buffer with 0.5% HSA instead of 0.1% BSA
Measured pIC50 of individual entries
pIC50 is defined as minus the log10 of a concentration measured in mol/L.

In the examples that follow, each entry is paired with its recorded pIC50.
MOLECULE: COCCN(c1ncc(Cl)cn1)[C@H]1CCc2c(c3cc(F)ccc3n2CC(=O)O)C1
TEST SYSTEM: UniProtKB Q9Y5Y4
pIC50: 7.85
//
MOLECULE: CN(c1ccc(F)cn1)[C@H]1CCc2c(c3cc(F)ccc3n2CC(=O)O)C1
TEST SYSTEM: UniProtKB Q9Y5Y4
pIC50: 8.10
//
MOLECULE: CN(c1ncc(Cl)cn1)C1CCc2c(c3cc(C(F)(F)F)ccc3n2CC(=O)O)C1 (stereo not shown)
TEST SYSTEM: UniProtKB Q9Y5Y4
pIC50: 7.82

I am curious: what pIC50 value has been reported for CN(c1ncccn1)[C@H]1CCc2c(c3cc(F)ccc3n2CC(=O)O)C1 ?
7.46

Queued: Cc1csc(N(C)C2CCc3c(c4cc(F)ccc4n3CC(=O)O)C2)n1 (stereo not shown)
7.60

What do you have for CN(c1nc2cc(Cl)ccc2o1)[C@H]1CCc2c(c3cc(F)ccc3n2CC(=O)O)C1 ?
7.55

Param item: CN(c1nc(C(F)(F)F)nc2ccccc12)[C@H]1CCc2c(c3cc(F)ccc3n2CC(=O)O)C1
6.42

Please do the same for O=C(O)Cn1c2c(c3cc(F)ccc31)C[C@@H](N(CC1CC1)c1ncc(Cl)cn1)CC2 as well.
8.22

Cool, now CN(c1ncc(F)cn1)[C@H]1CCc2c(c3cc(F)ccc3n2CC(=O)O)C1
8.15

Cool, now CN(c1ccon1)C1CCc2c(c3cc(F)ccc3n2CC(=O)O)C1 (stereo not shown)
7.28

Data credit: patent US8697869B2
